Measured amyloid nucleation score of individual entries
- methodSummary: amyloid nucleation score (Sup35N fusion, yeast selection) (log enrichment); library NNK1; higher = more nucleation; inactive = no reads after selection;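 further: zero at mode of non-aggregating sequences after 7 days selection at 30°C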
Reply with the value as a number alone.

INSERT INTO measurements (substance, assayvalue) VALUES
  ('YVDDFPRQSAGFIDT', 2),
  ('TIMVVWCSGKDGSQVTWMQF', 0.324),
  ('AYVASFTSIRCRAHHAPLSK', -0.366),
  ('CQEKRSFPVNMNRDIPCLSS', 0.193),
  ('ETSGSPFILIICIYELNVVM', 4.61);

Prompt line: Would you mind telling me what amyloid nucleation score value was observed for LKYCYGTT ?
Response line: 0.171

Prompt line: Name the recorded amyloid nucleation score for FSNARWASRSLKSARMACVA .
Response line: 0.554

Prompt line: Any idea what amyloid nucleation score was measured for HKHRKPSLNRVPGVGW ?
Response line: -0.78

Prompt line: For FVAASNYQAIPYCYRMIYVS , what is its reported amyloid nucleation score?
Response line: -0.102

Prompt line: Quick check: amyloid nucleation score of AWIRGQTVSCLYYAEGLELG ?
Response line: -0.448

Prompt line: What value of amyloid nucleation score has been reported for the following substance? NVVYMYSSASEYVWHRRLGF
Response line: -0.993

Prompt line: Requested field: amyloid nucleation score. Item: ILYMWWVRPLVQAQENRRRY
Response line: -0.089

Prompt line: Can you look up the measured amyloid nucleation score of FRRFIFFVGYGHFIFWASWL for me?
Response line: -0.156

Prompt line: Tell me the measured amyloid nucleation score of CLVVYHSRKAW , please.
Response line: 2.64

Prompt line: Can you look up the measured amyloid nucleation score of LSTPYHQWLLAGRSRWASRK for me?
Response line: 0.609

Prompt line: Consider the substance SHTTILTSWRSYKKMKASNA and give its measured amyloid nucleation score.
Response line: 0.496

Prompt line: What measured amyloid nucleation score goes with HCVRQTSWMLAENLAWEVWL ?
Response line: 1.1

Prompt line: Consider the substance LILCCPYNFNLVLMCCPKVG and give its measured amyloid nucleation score.
Response line: 7.27

Prompt line: Value lookup for amyloid nucleation score; key = LRARMCYRAPLRFR
Response line: -0.257

Prompt line: Could you share which amyloid nucleation score value was measured for FRIYLYLTCGLCSIIHYFVP ?
Response line: 0.818

Prompt line: Which amyloid nucleation score value belongs to LGTLNAGHTRDVDGAMGYVW ?
Response line: 0.252

Prompt line: Request the reported amyloid nucleation score associated with DNGCDEVCWELVFEFVD
Response line: 0.562

Prompt line: For the substance shown here, QSSSYERLKQTGKLSFYIDF , give the reported amyloid nucleation score.
Response line: -0.069

Prompt line: Consider the substance shown here: CGTIKLSPFWWSVEDHACWM What is its recorded amyloid nucleation score?
Response line: 0.828

Prompt line: Give the measured amyloid nucleation score of AQLGDDYVRCHSTILSTRRL .
Response line: 0.167

Prompt line: What value of amyloid nucleation score has been recorded for this entry: GSNPVVSLW
Response line: 0.076

Prompt line: # query: amyloid nucleation score of entry KGKTVVSEDGEQCHLGCSRT
Response line: -0.079

----------
- methodSummary: amyloid nucleation score (Sup35N fusion, yeast selection) (log enrichment); library NNK1; higher = more nucleation; inactive = no reads after selection
outcomeMeasure: amyloid nucleation score
I'd appreciate a reply containing only the number, no unit.

Prompt line: Can you share its amyloid nucleation score? I mean this sequence: HALTSDRYWKERPTIPRFRF
Response line: -0.174

Prompt line: What measured amyloid nucleation score goes with YRWSLTLNLL ?
Response line: -0.651

Prompt line: Given FMNGLGPAVAYIMGYTYVSM , state its recorded amyloid nucleation score.
Response line: 6.37

Prompt line: Entry LISFEHEFKRCHCALVTWT : reported amyloid nucleation score = ?
Response line: -0.048

Prompt line: Need amyloid nucleation score of HTRIADGPAC , thanks.
Response line: 0.018

Prompt line: Please report the recorded amyloid nucleation score for LNFDNFLLMWTMLVNRIISD .
Response line: 0.574

----------
- methodSummary: amyloid nucleation score (Sup35N fusion, yeast selection) (log enrichment); library NNK2; higher = more nucleation; inactive = no reads after selection
# binning rule on amyloid nucleation score: b0: < -0.2; b1: ≥ -0.2 and < 1; b2: ≥ 1

Observe how each entry below is paired with its result.
INSERT INTO results (substance, discretelabel) VALUES
  ('TTDRTDCLSFQLNFTDMKRG', 'b2'),
  ('GYLLGSDSGDGGPFVIERIK', 'b1'),
  ('IWFSWAVCFMITFHSHTHWW', 'b1');

Prompt line: Lab note: sort VMYMASSLHYTEEPSTSIMT into the matching amyloid nucleation score band.
Response line: b0

Prompt line: Which bin should I file AWEAPPYMCRDILRSWRGRL under?
Response line: b1

Prompt line: Hey, which category is SAWRVCYRTNENCAPFMYVL in, do you know?
Response line: b0

Prompt line: Assign a category based on measured amyloid nucleation score for YYVDVLESISSGMFLYSQLV and give only the class name.
Response line: b0

----------
- methodSummary: amyloid nucleation score (Sup35N fusion, yeast selection) (log enrichment); library NNK3; higher = more nucleation; inactive = no reads after selection
outcomeMeasure: amyloid nucleation score

INSERT INTO results (substance, outcomemeasure, assayvalue) VALUES
  ('GCLQTIADWFNFSNMN', 'amyloid nucleation score', 'inactive'),
  ('FILIYDRYRGF', 'amyloid nucleation score', 1.26),
  ('TARYMLSKYVTLCNDVSI', 'amyloid nucleation score', 0.984),
  ('WNTGETISRRLVVYNFIEMN', 'amyloid nucleation score', 2.22),
  ('SSGPLALVL', 'amyloid nucleation score', 'inactive'),
  ('LLIGNY', 'amyloid nucleation score', 'inactive'),
  ('NGWLVMLYIKLTGFFP', 'amyloid nucleation score', 'inactive'),
  ('YDWMFLYPTSIS', 'amyloid nucleation score', 0.319),
  ('FFRVYYRSTGGVNM', 'amyloid nucleation score', 'inactive'),
  ('VGGFKTILSIRRAAKCLCVG', 'amyloid nucleation score', 'inactive');

Okay, now this substance:
Prompt line: # amyloid nucleation score lookup, item YSGGLWWYWPSECNNAKYVL
Response line: inactive

----------
- methodSummary: amyloid nucleation score (Sup35N fusion, yeast selection) (log enrichment); library NNK2; higher = more nucleation; inactive = no reads after selection
Some substances, each annotated with its measured amyloid nucleation score.
// return a plain number; no unit text

INSERT INTO assay_data (substance, outcomemeasure, assayvalue) VALUES
  ('AIRLLDVLRCRG', 'amyloid nucleation score', 3.88),
  ('FINRPVKRKLNSSNIYICV', 'amyloid nucleation score', 3.16),
  ('FAVTGFTWYMKIRCASIPLV', 'amyloid nucleation score', 1.65);

Prompt line: Requested read-out: amyloid nucleation score. Entry: GGLVVECRVGW
Response line: 3.42

Prompt line: # input substance: HLSYILGVGMFNVHHDNGFF ; wanted: its amyloid nucleation score
Response line: 2.5

Prompt line: Need amyloid nucleation score, item SEQWSQIYGAFSV
Response line: -1.32

Prompt line: Which amyloid nucleation score value belongs to SCRTQVMVLSLLFKRKVGFN ?
Response line: -1.28

Prompt line: Item TQRVGGIRW has what recorded amyloid nucleation score?
Response line: 0.105

Prompt line: So what's the measured amyloid nucleation score for this one? IPKKSNLFLQMETMQLLFFD
Response line: 2.67

----------
- methodSummary: amyloid nucleation score (Sup35N fusion, yeast selection) (log enrichment); library NNK1; higher = more nucleation; inactive = no reads after selection
outcomeMeasure: amyloid nucleation score
Enter a number only.

INSERT INTO results (sequencecode, assayvalue) VALUES
  ('RVETYRSYGAIIEVNRPVYM', 0.625),
  ('HQVVNNGTWGEQYIWMLSAC', 0.442),
  ('ALPIMKLMACVCGQKGMTYA', -0.047),
  ('VSLVAGTWFYFWHNALVTYH', -0.067),
  ('NNPEINFYKVWAIKSYF', 2.83),
  ('NLDYDVESRVTEVWGVLSGC', 1.92);

Prompt line: What amyloid nucleation score value was documented for this sequence, CFIFFPSKIHPLICTKTRAK ?
Response line: 0.446

----------
- methodSummary: amyloid nucleation score (Sup35N fusion, yeast selection) (log enrichment); library NNK3; higher = more nucleation; inactive = no reads after selection
outcomeMeasure: amyloid nucleation score

INSERT INTO results (sequencecode, assayvalue) VALUES
  ('YSNWKLRRRCYLRDNIFWVI', 'inactive'),
  ('ENTAYWDLSGRLANQLGWRL', 'inactive'),
  ('FVRVALMYFVLKLTSRYKRN', 'inactive'),
  ('AGYNYASKSNTLESQTACCS', 'inactive'),
  ('WKYDKGNFRALVW', 'inactive');

Prompt line: Name the recorded amyloid nucleation score for NRINLDSSPLKGYFLINTIT .
Response line: inactive

Prompt line: Query (sequence): GLDLSSYPEL ; field requested: amyloid nucleation score
Response line: inactive

Prompt line: Which amyloid nucleation score is listed for TRFLFCFNWIWGEPVACEYE ?
Response line: 2.39

Prompt line: So what does the record say about amyloid nucleation score for RFWLDYEGRNAYWMGITHVW ?
Response line: inactive
